Data origin, for the record: ChEMBL document CHEMBL1201862

# Test system: SNB-78
# assay: NCI tumour cell line growth inhibition, 48 h
Active and inactive are the calls of the source. Rule as the data show it: active = GI50 up to about 1.1 µM and inactive = higher.
# valid calls are yes (active), no (inactive); nothing else

Qu. Give the logged outcome of this assay for the following molecule: N#CC(C#N)=C1NC(=O)C(c2ccccc2)C(=O)N1 (stereo unspecified)
Ans. no

Qu. Please share the test call associated with Cc1[nH]c2ccccc2c1C(=O)CC1(O)C(=O)Nc2ccccc21 (stereo unspecified) .
Ans. no

Qu. For `CC1(C)CC(=O)C(C(=O)Nc2cccs2)=C(O)C1` , what call appears in the results of this test?
Ans. no

Qu. What did this assay record as the result for `COC(=O)c1cc(-c2cccn2C)c2c(c1C(=O)OC)c1ccccc1n2C` ?
Ans. no

Qu. Tell me the recorded outcome of this test for `Nn1c(-c2cccc(Cl)c2)nc2ccccc2c1=O` .
Ans. no

Qu. Which result was noted for this molecule in the test: CC1CC(C2=CC=CCS2)=Nc2ccccc2S1 (stereo unspecified)
Ans. no

Qu. Hi, do you know how `O=C(/C=C/c1ccco1)c1ccc(NCc2nc3ccccc3[nH]2)cc1` came out in this test?
Ans. no

Qu. So what was the verdict on COc1cc2c(cc1OC)C(C(CO)CO)N(CC(O)CCl)CC2 (stereo unspecified) in this test?
Ans. no

Qu. Each molecule tested received a call. Report the one for COC(=O)C(C(=O)C(=O)Nc1nnc(S)[nH]1)c1csc(-n2nc(-c3ccccc3)cc2-c2ccccc2)n1 (stereo unspecified) .
Ans. no

Qu. Kindly provide the recorded test outcome for the following molecule: `COC(=O)C(CCS(=O)(=O)CC(=O)C(=O)Nc1cccc(C(C)=O)c1)C(=O)OC`
Ans. no

Qu. Just curious, what result did CC(=O)OC1CCC2(C)C3CCC4(C)C(c5ccc(=O)oc5)CC5OC54C3CCC2(O)C1 (stereo unspecified) get here?
Ans. no

Qu. What was the test verdict on `COc1ccc(NC(=O)CC/C(CC(=O)c2ccco2)=N/NC(N)=S)cc1` ?
Ans. no

Qu. Tell me the recorded outcome of this test for `COc1ccc2nc3ccccc3c(NCCCCCCN(C)CCCl)c2c1` .
Ans. yes

Qu. What call does the record list for CCOC(=O)N1CCN(P(=O)(Nc2ccc3[nH]c(NC(=O)OC)nc3c2)Oc2ccccc2)CC1 (stereo unspecified) ?
Ans. no

Qu. How was CC(=O)CC(=O)OC1CC(C)CCC1C(C)C (stereo unspecified) classified in this test?
Ans. no

Qu. Would you mind telling me which call this test gave O=C1NC(Cc2ccc(O)cc2)C(=O)N2CCCC12 (stereo unspecified) ?
Ans. no
